Just for reference, patent US20120264685A1 is where these values come from.

Assay: Stability in simulated intestinal fluid
Format: in vitro ADME
Conditions: simulated gi fluid; 2 μM, 37° C., pH 7.5; read-out: half-life (t1/2) in simulated intestinal fluid
Where a SMILES comes first, the peptide text is derived from it. [ ]: non-standard residue; d: D form. ξ: configuration not given here. ξαMeBip(2'-Et,4'-OMe) = CCc1cc(OC)ccc1-c1ccc(CC(C)(N)C(=O)O)cc1; ξBip(2'-Et-4'-OMe) = CCc1cc(OC)ccc1-c1ccc(CC(N)C(=O)O)cc1; ξαMePhe(2,6-F2) = CC(N)(Cc1c(F)cccc1F)C(=O)O; ξαMe(hhPhe) = CC(N)(CCCc1ccccc1)C(=O)O; ξαMePhe(2-F) = CC(N)(Cc1ccccc1F)C(=O)O; ξhhPhe = NC(CCCc1ccccc1)C(=O)O; ξαMeD = CC(N)(CC(=O)O)C(=O)O; ξαMeS = CC(N)(CO)C(=O)O
measurement_name: half-life

{"molecule": "CCc1cc(OC)ccc1-c1ccc(CC(C)(NC(=O)[C@H](CC(=O)O)NC(=O)C(C)(CO)NC(=O)[C@@H](NC(=O)C(C)(Cc2c(F)cccc2F)NC(=O)[C@@H](NC(=O)CNC(=O)[C@H](CCC(N)=O)NC(=O)[C@H](C)NC(=O)[C@H](Cc2c[nH]cn2)NC(=O)[C@@H](N)C(C)C)[C@@H](C)O)[C@@H](C)O)C(=O)NC(CCCc2ccccc2)C(N)=O)cc1 (stereo partly drawn) [compound 50] (H-VHAQGT[ξαMePhe(2,6-F2)]T[ξαMeS]D[ξαMeBip(2'-Et,4'-OMe)][ξhhPhe]-NH2)", "measurement_name": "half-life", "test_value": "0.5 h"}

Inquiry: I have this molecule here, CCc1cc(OC)ccc1-c1ccc(CC(NC(=O)[C@H](CC(=O)O)NC(=O)[C@H](CO)NC(=O)[C@@H](NC(=O)C(C)(Cc2ccccc2F)NC(=O)[C@@H](NC(=O)CNC(=O)[C@H](CCC(N)=O)NC(=O)[C@H](C)NC(=O)[C@H](Cc2c[nH]cn2)NC(=O)[C@@H](N)C(C)C)[C@@H](C)O)[C@@H](C)O)C(=O)NC(C)(CCCc2ccccc2)C(N)=O)cc1 (stereo partly drawn) [compound 92] (H-VHAQGT[ξαMePhe(2-F)]TSD[ξBip(2'-Et-4'-OMe)][ξαMe(hhPhe)]-NH2) , and I need its recorded half-life.
Reply text: > 24 h

Inquiry: I have this molecule here, CCc1cc(OC)ccc1-c1ccc(CC(C)(NC(=O)C(C)(CC(=O)O)NC(=O)[C@H](CO)NC(=O)[C@@H](NC(=O)[C@H](Cc2ccccc2)NC(=O)[C@@H](NC(=O)CNC(=O)[C@H](CCC(=O)O)NC(=O)[C@H](C)NC(=O)[C@H](Cc2c[nH]cn2)NC(=O)[C@@H](N)C(C)C)[C@@H](C)O)[C@@H](C)O)C(=O)NC(CCCc2ccccc2)C(N)=O)cc1 (stereo partly drawn) [compound 62] (H-VHAEGTFTS[ξαMeD][ξαMeBip(2'-Et,4'-OMe)][ξhhPhe]-NH2) , and I need its recorded half-life.
Reply text: > 24 h
